system: Escherichia coli; test: Antibacterial activity against Escherichia coli NIHJ JC-2; format: functional
Observed property: MIC (µg/mL)
Write down the numeric answer in µg/mL and omit the unit.

See these solved cases before continuing.
Cc1ccc[n+](CC2=C(C(=O)[O-])N3C(=O)[C@H]([C@@H](C)O)[C@H]3[C@H]2C)c1
0.2
C[C@@H](O)[C@H]1C(=O)N2C(C(=O)[O-])=C(/C=C/c3cccc[n+]3C)[C@H](C)[C@H]12
1.6

Moving on to the next molecule.
Task: Request the reported MIC associated with C[C@@H](O)[C@H]1C(=O)N2C(C(=O)[O-])=C(C[n+]3ccccc3)[C@H](C)[C@H]12
Result: 0.1
